Molecular target: hLXRβ (Homo sapiens, UniProt P55055)
Sequence (P55055 222-460 limits assumed): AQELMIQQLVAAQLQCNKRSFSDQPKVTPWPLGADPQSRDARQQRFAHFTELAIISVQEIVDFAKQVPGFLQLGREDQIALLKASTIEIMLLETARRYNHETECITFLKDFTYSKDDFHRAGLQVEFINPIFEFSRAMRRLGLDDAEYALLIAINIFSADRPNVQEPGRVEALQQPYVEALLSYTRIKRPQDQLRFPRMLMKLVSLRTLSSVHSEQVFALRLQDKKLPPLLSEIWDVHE
Test: luciferase assay with GAL-4 chimeric hLXRβ receptor in human embryonic kidney 293 cells
Assay type: cell-based
Description: All the synthesized compounds were first tested for their ability to activate LXRs by using luciferase assays with GAL-4 chimeric receptors. […] Cell Culture and Co-transfection Assays. […] Luciferase activities were analyzed by luciferase Dual Reporter Assay Systems (Promega) according to the manufacturer's protocol. […] Statistical analysis. Data are expressed as mean±SEM and were analyzed for significance by ANOVA with Dunnet's multiple comparison tests. […] Data in Table 1 are expressed as EC50±SD. […]
outcome-measure: EC50
Write the figure, then the unit, nothing else.

So what does the record say about EC50 for CC[C@](O)(CC[C@@H](C)[C@H]1CCC2C3CC=C4C[C@@H](O)CC[C@]4(C)C3CC[C@@]21C)C(C)C (stereo partly shown) [Compound 29] ?
3.21 µM

---

Target: hLXRα (Homo sapiens, UniProt Q13133)
Sequence (Q13133 209-447 limits assumed): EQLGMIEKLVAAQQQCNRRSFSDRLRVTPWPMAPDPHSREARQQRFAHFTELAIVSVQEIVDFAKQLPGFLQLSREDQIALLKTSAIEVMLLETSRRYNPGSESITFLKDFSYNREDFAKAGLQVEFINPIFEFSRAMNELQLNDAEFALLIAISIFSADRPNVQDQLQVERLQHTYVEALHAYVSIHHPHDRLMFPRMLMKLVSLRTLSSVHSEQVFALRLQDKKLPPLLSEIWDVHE
Assay: luciferase assay with GAL-4 chimeric hLXRα receptor in human embryonic kidney 293 cells
Format: cell-based
Details: HEK293, 24 h, read-out: LXRα Efficacy (%) ± SD
outcome-measure: Emax (%)
Give just the number in %; leave the unit off.

The cases that follow already have their Emax on record.
compound	value-units	meas-value
CC[C@@H](C(C)C)[C@@H]1O[C@H]1[C@@H](C)[C@H]1CC[C@H]2[C@@H]3CC=C4C[C@@H](O)CC[C@]4(C)[C@H]3CC[C@]12C [Compound 14]	%	56.8
C=C[C@@](O)(CC[C@@H](C)C1CCC2C3CC=C4C[C@@H](O)CC[C@]4(C)C3CC[C@@]21C)C(C)C (stereo partly drawn) [Compound 12, 24(S)-saringosterol, reference compound]	%	43.4

Alright, here's another compound for you.
So what does the record say about Emax for CC[C@](O)(CC[C@@H](C)[C@H]1CCC2C3CC=C4C[C@@H](O)CC[C@]4(C)C3CC[C@@]21C)C(C)C (stereo partly drawn) [Compound 29] ?
11

---

The entries below are paired with their reported Emax.
Biological target: hLXRα (Homo sapiens, UniProt Q13133)
Experiment: luciferase assay with GAL-4 chimeric hLXRα receptor in human embryonic kidney 293 cells
Assay type: cell-based
Settings: HEK293, 24 h; % of compound effect versus 8 μM of 22R-HC; read-out: LXRα Efficacy (%) ± SD
Method: All the synthesized compounds were first tested for their ability to activate LXRs by using luciferase assays with GAL-4 chimeric receptors. […] Cell Culture and Co-transfection Assays. […] Luciferase activities were analyzed by luciferase Dual Reporter Assay Systems (Promega) according to the manufacturer's protocol. […] Statistical analysis. Data are expressed as mean±SEM and were analyzed for significance by ANOVA with Dunnet's multiple comparison tests. […] Data in Table 1 are expressed as EC50±SD. […]
Give just the number in %; leave the unit off.

The cases that follow already have their Emax on record.
compound	subject-of-test	outcome-measure	value-units	meas-value
CC(C)[C@@H](C)CC(=O)[C@@H](C)[C@H]1CC[C@H]2C3=CC=C4C[C@@H](O)CC[C@]4(C)[C@H]3CC[C@]12C [Compound 28, 3β-Hydroxyergost-5,7-diene-22-one]	hLXRα (Homo sapiens, UniProt Q13133)	Emax	%	70.2
CC(C)[C@@H](C)C(=O)C[C@@H](C)[C@H]1CC[C@H]2C3=CC=C4C[C@@H](O)CC[C@]4(C)[C@H]3CC[C@]12C [Compound 27, 3β-Hydroxyergost-5,7-diene-23-one]	hLXRα (Homo sapiens, UniProt Q13133)	Emax	%	151
CC(C)[C@@H](C)[C@@H]1O[C@H]1[C@@H](C)[C@H]1CC[C@H]2C3=CC=C4C[C@@H](O)CC[C@]4(C)[C@H]3CC[C@]12C	hLXRα (Homo sapiens, UniProt Q13133)	Emax	%	51.7
CC(C)[C@@H](C)[C@H]1O[C@@H]1[C@@H](C)[C@H]1CC[C@H]2C3=CC=C4C[C@@H](O)CC[C@]4(C)[C@H]3CC[C@]12C	hLXRα (Homo sapiens, UniProt Q13133)	Emax	%	93.2
CC(C)[C@@H](C)[C@H](O)C[C@@H](C)[C@H]1CC[C@H]2C3=CC=C4C[C@@H](O)CC[C@]4(C)[C@H]3CC[C@]12C [Compound 23, (23R)-3β-Ergost-5,7-diene-3,23-diol]	hLXRα (Homo sapiens, UniProt Q13133)	Emax	%	63.9

Alright, here's another compound for you.
// map CC(C)[C@@H](C)[C@@H](O)C[C@@H](C)[C@H]1CC[C@H]2C3=CC=C4C[C@@H](O)CC[C@]4(C)[C@H]3CC[C@]12C [Compound 21, (23S)-3β-Ergost-5,7-diene-3,23-diol] to recorded Emax (system: hLXRα (Homo sapiens, UniProt Q13133))
159

---

molecular target: UniProt Q13133; assay: luciferase assay with GAL-4 chimeric hLXRα receptor in human embryonic kidney 293 cells; format: cell-based; conditions: HEK293, 24 h, read-out: LXRα Efficacy (%) ± SD
outcome-measure: Emax (%)
Give just the number in %; leave the unit off.

molecule	value-units	Emax
CC(C)CC[C@@H](O)[C@@H](C)[C@H]1CC[C@H]2[C@@H]3CC=C4C[C@@H](O)CC[C@]4(C)[C@H]3CC[C@]12C [22R-HC (3), 22(R)-hydroxycholesterol, reference compound]	%	100
CC[C@H](C(=O)C[C@@H](C)[C@H]1CC[C@H]2[C@@H]3CC=C4C[C@@H](O)CC[C@]4(C)[C@H]3CC[C@]12C)C(C)C [Compound 25, 3β-Hydroxystigmast-5-ene-23-one]	%	12.4

So what does the record say about Emax for CC[C@@H](C(C)C)[C@H]1O[C@@H]1[C@@H](C)[C@H]1CC[C@H]2[C@@H]3CC=C4C[C@@H](O)CC[C@]4(C)[C@H]3CC[C@]12C [Compound 13] ?
489

---

biological target: hLXRβ (Homo sapiens); assay: luciferase assay with GAL-4 chimeric hLXRβ receptor in human embryonic kidney 293 cells; type: cell-based; conditions: GAL4-hLXRβ luciferase, HEK293; dose-response 32-1 μM; mean of three-five independent experiments; read-out: LXRβ EC50 (μM) ± SD
outcome-measure: EC50 (µM)
Give just the number in µM; leave the unit off.

The cases that follow already have their EC50 on record.
compound	value-units	meas-value
CC[C@H](C(=O)C[C@@H](C)[C@H]1CC[C@H]2[C@@H]3CC=C4C[C@@H](O)CC[C@]4(C)[C@H]3CC[C@]12C)C(C)C [Compound 25, 3β-Hydroxystigmast-5-ene-23-one]	µM	6.02
CC(C)[C@@H](C)[C@H]1O[C@@H]1[C@@H](C)[C@H]1CC[C@H]2C3=CC=C4C[C@@H](O)CC[C@]4(C)[C@H]3CC[C@]12C	µM	7.2
CC[C@@H](C(C)C)[C@H]1O[C@@H]1[C@@H](C)[C@H]1CC[C@H]2[C@@H]3CC=C4C[C@@H](O)CC[C@]4(C)[C@H]3CC[C@]12C	µM	3.79

So what does the record say about EC50 for CC(C)[C@@H](C)C[C@H](O)[C@@H](C)[C@H]1CC[C@H]2C3=CC=C4C[C@@H](O)CC[C@]4(C)[C@H]3CC[C@]12C [Compound 22, (22S)-3β-Ergost-5,7-diene-3,22-diol] ?
1.96

So what does the record say about EC50 for CC(C)[C@@H](C)[C@@H]1O[C@H]1[C@@H](C)[C@H]1CC[C@H]2C3=CC=C4C[C@@H](O)CC[C@]4(C)[C@H]3CC[C@]12C ?
1.96

---

Target: hLXRα (Homo sapiens)
Sequence (Q13133 209-447 limits assumed): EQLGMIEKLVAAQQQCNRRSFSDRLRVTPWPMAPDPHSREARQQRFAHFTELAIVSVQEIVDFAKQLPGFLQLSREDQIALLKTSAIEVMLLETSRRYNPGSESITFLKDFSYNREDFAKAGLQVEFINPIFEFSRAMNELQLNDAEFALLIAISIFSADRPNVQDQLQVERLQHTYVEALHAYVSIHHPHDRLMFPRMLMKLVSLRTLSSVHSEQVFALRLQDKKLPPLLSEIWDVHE
Experiment: luciferase assay with GAL-4 chimeric hLXRα receptor in human embryonic kidney 293 cells
Format: cell-based
Conditions: GAL4-hLXRα luciferase, HEK293; dose-response 32-1 μM; mean of three-five independent experiments; read-out: LXRα EC50 (μM) ± SD
outcome-measure: EC50 (µM)
Give just the number in µM; leave the unit off.

The cases that follow already have their EC50 on record.
molecule	EC50, µM
CC(C)[C@@H](C)C(=O)C[C@@H](C)[C@H]1CC[C@H]2C3=CC=C4C[C@@H](O)CC[C@]4(C)[C@H]3CC[C@]12C [Compound 27, 3β-Hydroxyergost-5,7-diene-23-one]	5.58
CC[C@@H](C(C)C)[C@H]1O[C@@H]1[C@@H](C)[C@H]1CC[C@H]2[C@@H]3CC=C4C[C@@H](O)CC[C@]4(C)[C@H]3CC[C@]12C [Compound 13]	2.09
CC[C@H](C(=O)C[C@@H](C)[C@H]1CC[C@H]2[C@@H]3CC=C4C[C@@H](O)CC[C@]4(C)[C@H]3CC[C@]12C)C(C)C [Compound 25, 3β-Hydroxystigmast-5-ene-23-one]	14.5
CC[C@@H](C(C)C)[C@H](O)C[C@@H](C)[C@H]1CC[C@H]2[C@@H]3CC=C4C[C@@H](O)CC[C@]4(C)[C@H]3CC[C@]12C [Compound 19, (23R)-3β-Stigmast-5-ene-3,23-diol]	3.2
CC(C)[C@@H](C)[C@@H](O)C[C@@H](C)[C@H]1CC[C@H]2C3=CC=C4C[C@@H](O)CC[C@]4(C)[C@H]3CC[C@]12C [Compound 21, (23S)-3β-Ergost-5,7-diene-3,23-diol]	8.07

Alright, here's another molecule for you.
// map CC(C)[C@@H](C)C[C@H](O)[C@@H](C)[C@H]1CC[C@H]2C3=CC=C4C[C@@H](O)CC[C@]4(C)[C@H]3CC[C@]12C [Compound 22, (22S)-3β-Ergost-5,7-diene-3,22-diol] to recorded EC50 (system: hLXRα (Homo sapiens))
6.61
